Data provenance is ChEMBL document CHEMBL1122266.

- target_desc: Estrogen receptor (Mus musculus) (UniProt O08537+P19785)
- Sequence (O08537 whole entry, looked up): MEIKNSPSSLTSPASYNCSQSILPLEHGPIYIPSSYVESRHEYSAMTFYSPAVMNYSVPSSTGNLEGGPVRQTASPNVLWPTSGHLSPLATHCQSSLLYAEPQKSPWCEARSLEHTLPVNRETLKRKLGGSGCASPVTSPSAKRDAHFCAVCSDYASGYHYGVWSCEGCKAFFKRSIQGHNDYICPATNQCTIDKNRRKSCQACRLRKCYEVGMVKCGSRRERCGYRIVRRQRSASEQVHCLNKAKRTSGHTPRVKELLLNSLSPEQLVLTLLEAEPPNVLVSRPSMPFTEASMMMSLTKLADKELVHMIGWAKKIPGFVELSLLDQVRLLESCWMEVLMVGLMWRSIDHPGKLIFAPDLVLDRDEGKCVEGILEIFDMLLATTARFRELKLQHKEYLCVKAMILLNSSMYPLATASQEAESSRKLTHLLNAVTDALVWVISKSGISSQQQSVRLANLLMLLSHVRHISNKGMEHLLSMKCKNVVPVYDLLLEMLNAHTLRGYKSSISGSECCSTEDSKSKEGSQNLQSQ
- Sequence (P19785 whole entry, looked up): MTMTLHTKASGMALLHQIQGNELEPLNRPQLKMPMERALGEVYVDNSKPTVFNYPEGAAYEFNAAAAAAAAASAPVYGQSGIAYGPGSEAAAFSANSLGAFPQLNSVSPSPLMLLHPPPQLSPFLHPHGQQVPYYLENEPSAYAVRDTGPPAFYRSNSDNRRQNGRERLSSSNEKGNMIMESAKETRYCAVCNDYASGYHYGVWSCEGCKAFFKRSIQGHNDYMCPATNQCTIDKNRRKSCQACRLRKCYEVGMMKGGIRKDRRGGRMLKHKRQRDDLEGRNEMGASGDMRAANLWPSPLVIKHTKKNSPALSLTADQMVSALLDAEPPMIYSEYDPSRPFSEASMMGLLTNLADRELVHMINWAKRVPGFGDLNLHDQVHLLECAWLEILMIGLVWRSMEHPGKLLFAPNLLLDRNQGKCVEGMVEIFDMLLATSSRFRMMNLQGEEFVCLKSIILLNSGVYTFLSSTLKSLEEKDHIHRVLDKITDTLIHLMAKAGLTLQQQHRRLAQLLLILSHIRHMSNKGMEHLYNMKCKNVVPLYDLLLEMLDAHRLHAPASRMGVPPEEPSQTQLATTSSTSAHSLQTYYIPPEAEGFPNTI
- measurement_description: Estrogenic activity in uterotrophic assay in mice at 0.4 ug/day with estrone
- Format: functional
Each item that follows carries a reported Effect.
measured_quantity: Effect

INSERT INTO results (molecule, reported_measurement) VALUES
  ('CCC(c1ccc(O)c(C)c1)C(CC)c1ccc(O)c(C)c1 (configuration not stated)', '44.9 mg 100g-1'),
  ('CCC(c1ccc(O)c(F)c1)C(CC)c1ccc(O)c(F)c1 (configuration not stated)', '44.9 mg 100g-1'),
  ('CCC(c1ccc(O)cc1F)C(CC)c1ccc(O)cc1F (configuration not stated)', '43.9 mg 100g-1'),
  ('CCC(c1ccc(O)c(O)c1)C(CC)c1ccc(O)c(O)c1 (configuration not stated)', '54.3 mg 100g-1'),
  ('CCC(c1ccc(O)cc1O)C(CC)c1ccc(O)cc1O (configuration not stated)', '51.4 mg 100g-1'),
  ('CCC(c1ccc(O)cc1C)C(CC)c1ccc(O)cc1C (configuration not stated)', '43.9 mg 100g-1'),
  ('CCC(c1ccc(O)c(N)c1)C(CC)c1ccc(O)c(N)c1 (configuration not stated)', '50.4 mg/100 g');

---

- target_desc: Estrogen receptor (Bos taurus) (UniProt Q9XSB5+P49884)
- measurement_description: Relative binding affinity for calf uterine estrogen receptor by 17-beta-[3H]-estradiol competition.
- Type: protein assay
Label scheme for relative binding affinity (RBA): lower than 4 is label 0, 4 and above is label 1.

INSERT INTO assay_data (molecule, class) VALUES
  ('CCC(c1ccc(O)c(CN(C)C)c1)C(CC)c1ccc(O)c(CN(C)C)c1 (stereo unspecified)', 'label 0'),
  ('CCC(c1ccc(O)c(N)c1)C(CC)c1ccc(O)c(N)c1 (stereo unspecified)', 'label 1'),
  ('CCC(c1ccc(O)cc1O)C(CC)c1ccc(O)cc1O (stereo unspecified)', 'label 1'),
  ('CCC(c1ccc(O)c(F)c1)C(CC)c1ccc(O)c(F)c1 (stereo unspecified)', 'label 1'),
  ('CCC(c1ccc(O)c(Br)c1)C(CC)c1ccc(O)c(Br)c1 (stereo unspecified)', 'label 0'),
  ('CCC(c1ccc(O)c(COC)c1)C(CC)c1ccc(O)c(COC)c1 (stereo unspecified)', 'label 0'),
  ('CCc1cc(O)ccc1C(CC)C(CC)c1ccc(O)cc1CC (stereo unspecified)', 'label 0'),
  ('CCC(c1ccc(O)c(CO)c1)C(CC)c1ccc(O)c(CO)c1 (stereo unspecified)', 'label 0'),
  ('CCC(c1ccc(O)cc1Br)C(CC)c1ccc(O)cc1Br (stereo unspecified)', 'label 0'),
  ('CCC(c1ccc(O)c(C(C)=O)c1)C(CC)c1ccc(O)c(C(C)=O)c1 (stereo unspecified)', 'label 0'),
  ('CCC(c1ccc(O)c(Cl)c1)C(CC)c1ccc(O)c(Cl)c1 (stereo unspecified)', 'label 0'),
  ('CC[C@H](c1ccc(O)cc1)[C@@H](CC)c1ccc(O)cc1', 'label 1'),
  ('CCC(c1ccc(O)c(I)c1)C(CC)c1ccc(O)c(I)c1 (stereo unspecified)', 'label 0'),
  ('CCC(c1ccc(O)cc1C)C(CC)c1ccc(O)cc1C (stereo unspecified)', 'label 1'),
  ('CCC(c1ccc(O)c(O)c1)C(CC)c1ccc(O)c(O)c1 (stereo unspecified)', 'label 1'),
  ('CCC(c1ccc(O)cc1F)C(CC)c1ccc(O)cc1F (stereo unspecified)', 'label 1');

---

- target_desc: Estrogen receptor (Mus musculus) (UniProt O08537+P19785)
- measurement_description: Estrogenic activity in uterotrophic assay in mice at 10 ug/day
- Format: functional
measured_quantity: Effect (mg 100g-1)

INSERT INTO measurements (molecule, measured_quantity, reported_measurement) VALUES
  ('CCC(c1ccc(O)cc1O)C(CC)c1ccc(O)cc1O (configuration not stated)', 'Effect', 41.6),
  ('CCC(c1ccc(O)c(F)c1)C(CC)c1ccc(O)c(F)c1 (configuration not stated)', 'Effect', 43.4),
  ('CCC(c1ccc(O)cc1C)C(CC)c1ccc(O)cc1C (configuration not stated)', 'Effect', 36.6),
  ('CCC(c1ccc(O)c(O)c1)C(CC)c1ccc(O)c(O)c1 (configuration not stated)', 'Effect', 34.7),
  ('CCC(c1ccc(O)cc1F)C(CC)c1ccc(O)cc1F (configuration not stated)', 'Effect', 39),
  ('CCC(c1ccc(O)c(C)c1)C(CC)c1ccc(O)c(C)c1 (configuration not stated)', 'Effect', 40),
  ('CCC(c1ccc(O)c(N)c1)C(CC)c1ccc(O)c(N)c1 (configuration not stated)', 'Effect', 24.3);

---

- target_desc: Estrogen receptor (Mus musculus) (UniProt O08537+P19785)
- measurement_description: Estrogenic activity in uterotrophic assay in mice at 1 ug/day
- Type: functional
measured_quantity: Effect (mg 100g-1)

INSERT INTO measurements (compound, units_of_measure, reported_measurement) VALUES
  ('CCC(c1ccc(O)c(N)c1)C(CC)c1ccc(O)c(N)c1 (stereo unspecified)', 'mg 100g-1', 23.3),
  ('CCC(c1ccc(O)c(F)c1)C(CC)c1ccc(O)c(F)c1 (stereo unspecified)', 'mg 100g-1', 50.7),
  ('CCC(c1ccc(O)c(C)c1)C(CC)c1ccc(O)c(C)c1 (stereo unspecified)', 'mg 100g-1', 48.7),
  ('CCC(c1ccc(O)cc1O)C(CC)c1ccc(O)cc1O (stereo unspecified)', 'mg 100g-1', 53.6),
  ('CCC(c1ccc(O)cc1F)C(CC)c1ccc(O)cc1F (stereo unspecified)', 'mg 100g-1', 47.6),
  ('CCC(c1ccc(O)cc1C)C(CC)c1ccc(O)cc1C (stereo unspecified)', 'mg 100g-1', 46.3);

---

- target_desc: Estrogen receptor (Mus musculus) (UniProt O08537+P19785)
- measurement_description: Estrogenic activity in uterotrophic assay in mice at 0 ug/day
- Type: functional
Each item that follows carries a reported Effect.
measured_quantity: Effect (mg 100g-1)

INSERT INTO measurements (compound, target_desc, measured_quantity, units_of_measure, reported_measurement) VALUES
  ('CCC(c1ccc(O)cc1F)C(CC)c1ccc(O)cc1F (configuration not stated)', 'Estrogen receptor (Mus musculus) (UniProt O08537+P19785)', 'Effect', 'mg 100g-1', 16.9),
  ('CCC(c1ccc(O)cc1O)C(CC)c1ccc(O)cc1O (configuration not stated)', 'Estrogen receptor (Mus musculus) (UniProt O08537+P19785)', 'Effect', 'mg 100g-1', 16.4),
  ('CCC(c1ccc(O)c(O)c1)C(CC)c1ccc(O)c(O)c1 (configuration not stated)', 'Estrogen receptor (Mus musculus) (UniProt O08537+P19785)', 'Effect', 'mg 100g-1', 15.4),
  ('CCC(c1ccc(O)c(N)c1)C(CC)c1ccc(O)c(N)c1 (configuration not stated)', 'Estrogen receptor (Mus musculus) (UniProt O08537+P19785)', 'Effect', 'mg 100g-1', 16.9),
  ('CCC(c1ccc(O)c(F)c1)C(CC)c1ccc(O)c(F)c1 (configuration not stated)', 'Estrogen receptor (Mus musculus) (UniProt O08537+P19785)', 'Effect', 'mg 100g-1', 10),
  ('CCC(c1ccc(O)cc1C)C(CC)c1ccc(O)cc1C (configuration not stated)', 'Estrogen receptor (Mus musculus) (UniProt O08537+P19785)', 'Effect', 'mg 100g-1', 16.9),
  ('CCC(c1ccc(O)c(C)c1)C(CC)c1ccc(O)c(C)c1 (configuration not stated)', 'Estrogen receptor (Mus musculus) (UniProt O08537+P19785)', 'Effect', 'mg 100g-1', 10);

---

- target_desc: Estrogen receptor (Mus musculus) (UniProt O08537+P19785)
- measurement_description: Estrogenic activity in uterotrophic assay in mice at 100 ug/day
- Assay type: functional
measured_quantity: Effect

INSERT INTO assay_data (compound, target_desc, reported_measurement) VALUES
  ('CCC(c1ccc(O)c(C)c1)C(CC)c1ccc(O)c(C)c1 (stereo not given)', 'Estrogen receptor (Mus musculus) (UniProt O08537+P19785)', '33.8 mg 100g-1'),
  ('CCC(c1ccc(O)c(N)c1)C(CC)c1ccc(O)c(N)c1 (stereo not given)', 'Estrogen receptor (Mus musculus) (UniProt O08537+P19785)', '44.7 mg/100 g'),
  ('CCC(c1ccc(O)cc1C)C(CC)c1ccc(O)cc1C (stereo not given)', 'Estrogen receptor (Mus musculus) (UniProt O08537+P19785)', '38.4 mg 100g-1'),
  ('CCC(c1ccc(O)c(F)c1)C(CC)c1ccc(O)c(F)c1 (stereo not given)', 'Estrogen receptor (Mus musculus) (UniProt O08537+P19785)', '40.4 mg 100g-1'),
  ('CCC(c1ccc(O)cc1F)C(CC)c1ccc(O)cc1F (stereo not given)', 'Estrogen receptor (Mus musculus) (UniProt O08537+P19785)', '34.3 mg 100g-1');
